Data credit: paper PMC12509006

target: A. baumannii ATP synthase (Acinetobacter baumannii); construct: endogenous electron transport chains of inverted inner membrane vesicles were energized with NADH; endogenous in cells; host or cells: inverted inner membrane vesicles prepared from A. baumannii ATCC 17978 cells; assay: AB ATP synthase inhibition: NADH-driven ATP synthesis in inverted inner membrane vesicles, luciferin/luciferase readout; assay type: biochemical; conditions: Figure 2; read-out: IC50, AB ATP synthase inhibition (converted)
Sequence (A3M139 whole entry): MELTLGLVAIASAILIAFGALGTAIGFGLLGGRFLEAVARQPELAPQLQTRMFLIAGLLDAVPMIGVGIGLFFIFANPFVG
Field 'label' (enum: yes / no). Set to yes when IC50 is strictly under 1000 nM; else no.

Ask: Below 1000 nM on IC50? Entry c1ccc(CSc2ncc(-c3ccccc3)cc2CNCc2ccc(CN3CCCC3)cc2)cc1 [WSA 294]
Reply: no

Ask: Below 1000 nM on IC50? Entry Fc1ccc(-c2cnc(SCc3ccccc3)c(CNCc3ccc(CN4CCCC4)cc3)c2)cc1 [WSA 298]
Reply: no

Ask: Below 1000 nM on IC50? Entry COc1ccc(-c2cnc(SCc3ccccc3)c(CNCc3ccc(CN4CCCC4)cc3)c2)cc1F [WSA 297]
Reply: yes

Ask: Below 1000 nM on IC50? Entry COc1ccc(-c2cnc(SCc3ccccc3)c(CNCCN3CCN(C)CC3)c2)cc1F [WSA 275]
Reply: yes

Ask: Below 1000 nM on IC50? Entry Cc1ccc(-c2cnc(SCc3ccccc3)c(CNCCN3CCN(C)CC3)c2)cc1 [WSA 280]
Reply: no

Ask: Below 1000 nM on IC50? Entry COc1ccc(-c2cnc(SCc3ccccc3)c(CNCc3ccc(CN4CCCC4)cc3)c2)cc1 [WSA 296]
Reply: yes

Ask: Below 1000 nM on IC50? Entry COc1ccc(-c2cnc(SCc3ccccc3)c(CNCCC3CCN(C4CCCC4)CC3)c2)cc1 [WSA 288]
Reply: yes

Ask: Below 1000 nM on IC50? Entry COc1ccc(-c2cnc(SCc3ccccc3)c(CNCCN3CCN(C)CC3)c2)cc1 [WSA 278]
Reply: no

Ask: Below 1000 nM on IC50? Entry Cc1ccc(-c2cnc(SCc3ccccc3)c(CNCCC3CCN(C4CCCC4)CC3)c2)cc1 [WSA 289]
Reply: yes

Ask: Below 1000 nM on IC50? Entry CN1CCN(CCNCc2cc(-c3ccc(N(C)C)cc3)cnc2SCc2ccccc2)CC1 [WSA 276]
Reply: yes
